Where do the numbers come from? From patent US20160159808A1.

Target: human PDE2A3 enzyme (Homo sapiens)
Construct: Human PDE2A3 full-length gene was transduced into Sf9; His-tag; made in house; host or cells: Sf9 insect cells
Test: PDE Enzyme Inhibitory Assay (SPA, [3H]cGMP substrate)
Assay type: biochemical
Details: compound 1 μM; [3H]cGMP 77 nM; 60 min at room temperature; read-out: inhibitory rate (%) (1 μM)
Measured Metric: inhibition at 1 µM (%)

Compound: CC(C)(O)[C@@H](NC(=O)c1cnn2ccc(-c3ccccc3C#N)nc12)c1ccc(OC(F)(F)F)c(F)c1
System: human PDE2A3 enzyme (Homo sapiens)
Unit: %
Test Value: 100
--
Compound: Cc1cn2ncc(C(=O)N[C@@H](c3ccc(OC(F)(F)F)cc3)C(C)(C)O)c2nc1-c1cnn(C(F)F)c1
System: human PDE2A3 enzyme (Homo sapiens)
Unit: %
Test Value: 100
--
Compound: CC(C)(O)[C@@H](NC(=O)c1ccc2cncc(-c3ccccc3)c2n1)c1ccc(OC(F)(F)F)cc1
System: human PDE2A3 enzyme (Homo sapiens)
Unit: %
Test Value: 97
--
Compound: CC(C)(O)[C@@H](NC(=O)c1cnn2ccc(-c3cnn(C(F)F)c3)nc12)c1ccc(OC(F)(F)F)cc1
System: human PDE2A3 enzyme (Homo sapiens)
Unit: %
Test Value: 101
--
Compound: COCC(NC(=O)c1cnn2ccc(N3CCOCC3)nc12)c1ccc(OC(F)(F)F)c(F)c1 (stereo not shown)
System: human PDE2A3 enzyme (Homo sapiens)
Unit: %
Test Value: 98
--
Compound: Cc1ccc(-c2ccn3ncc(C(=O)N[C@@H](c4ccc(OC(F)(F)F)cc4)C(C)(C)O)c3n2)cn1
System: human PDE2A3 enzyme (Homo sapiens)
Unit: %
Test Value: 100
--
Compound: Cc1cn(-c2nc3c(C(=O)N[C@@H](c4ccc(OC(F)(F)F)cc4)C(C)(C)O)cnn3cc2C)nn1
System: human PDE2A3 enzyme (Homo sapiens)
Unit: %
Test Value: 100

----------
Reported inhibition at 1 µM values follow for various compounds
Target: human PDE2A3 enzyme (Homo sapiens, UniProt O00408)
Construct: Human PDE2A3 full-length gene was transduced into Sf9; His-tag; made in house; host or cells: Sf9 insect cells
Sequence (O00408 whole entry): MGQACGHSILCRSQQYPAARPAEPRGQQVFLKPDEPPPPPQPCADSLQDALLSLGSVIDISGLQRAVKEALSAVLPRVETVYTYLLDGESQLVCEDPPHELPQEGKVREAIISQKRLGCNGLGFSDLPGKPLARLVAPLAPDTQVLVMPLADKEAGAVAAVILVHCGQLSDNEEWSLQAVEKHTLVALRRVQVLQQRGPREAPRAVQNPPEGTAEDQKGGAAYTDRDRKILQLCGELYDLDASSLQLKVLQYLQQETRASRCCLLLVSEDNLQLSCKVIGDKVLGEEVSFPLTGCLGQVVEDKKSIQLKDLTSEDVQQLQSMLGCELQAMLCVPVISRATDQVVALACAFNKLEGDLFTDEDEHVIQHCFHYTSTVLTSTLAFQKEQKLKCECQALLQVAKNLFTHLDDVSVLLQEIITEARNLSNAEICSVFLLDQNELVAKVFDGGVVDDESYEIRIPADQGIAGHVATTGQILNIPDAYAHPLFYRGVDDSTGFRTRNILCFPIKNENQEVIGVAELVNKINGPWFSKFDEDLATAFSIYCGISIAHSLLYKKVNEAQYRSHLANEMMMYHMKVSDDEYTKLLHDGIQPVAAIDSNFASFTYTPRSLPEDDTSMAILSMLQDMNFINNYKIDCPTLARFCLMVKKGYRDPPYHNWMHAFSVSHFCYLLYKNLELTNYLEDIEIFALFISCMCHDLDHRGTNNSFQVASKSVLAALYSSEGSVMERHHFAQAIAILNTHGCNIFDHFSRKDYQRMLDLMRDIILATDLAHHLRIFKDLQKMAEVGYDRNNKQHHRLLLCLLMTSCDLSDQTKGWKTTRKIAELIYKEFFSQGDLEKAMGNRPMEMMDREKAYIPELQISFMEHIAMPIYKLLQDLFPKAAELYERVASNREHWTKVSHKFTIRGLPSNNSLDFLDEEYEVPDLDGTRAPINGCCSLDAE
Assay: PDE Enzyme Inhibitory Assay (SPA, [3H]cGMP substrate)
Assay type: biochemical
Conditions: compound 1 μM; [3H]cGMP 77 nM; 60 min at room temperature; read-out: inhibitory rate (%) (1 μM)
Measured Metric: inhibition at 1 µM (%)

Compound: COC[C@@H](NC(=O)c1cnn2cc(C)cnc12)c1ccc(OC(F)(F)F)c(F)c1 [Example 12]
Unit: %
Test Value: 99
--
Compound: CC(C)(O)[C@@H](NC(=O)c1cnn2ccc(-c3ccccn3)nc12)c1ccc(OC(F)(F)F)cc1 [Example 72]
Unit: %
Test Value: 100
--
Compound: CC1(C)CN(c2ccn3ncc(C(=O)N[C@@H](c4ccc(OC(F)(F)F)cc4)C(C)(C)O)c3n2)CCO1 [Example 124]
Unit: %
Test Value: 99
--
Compound: Cc1cn2ncc(C(=O)NC(c3ccc(OC(F)(F)F)c(F)c3)C(C)(C)O)c2nc1N1CCC1 (centres unmarked) [Example 59]
Unit: %
Test Value: 101
--
Compound: CCN(C)c1ccn2ncc(C(=O)NC(c3ccc(OC(F)(F)F)c(F)c3)C(C)(C)O)c2n1 (centres unmarked) [Example 29]
Unit: %
Test Value: 100
--
Compound: Cc1cn2ncc(C(=O)N[C@@H](c3ccc(OC(F)(F)F)cc3)C(C)(C)O)c2nc1-n1cnc(C(F)(F)F)c1 [Example 79]
Unit: %
Test Value: 101
--
Compound: Cn1cc(C(=O)N[C@@H](c2ccc(OC(F)(F)F)cc2)C(C)(C)O)c2nc(-c3ccccn3)cc(=O)n21 [Example 77]
Unit: %
Test Value: 100
--
Compound: COCC(NC(=O)c1cc(=O)[nH]c2cccnc12)c1ccc(OC(F)(F)F)cc1 (centres unmarked) [Example 1]
Unit: %
Test Value: 99
--
Compound: Cn1cc(C(=O)N[C@@H](c2ccc(OC(F)(F)F)c(F)c2)C(C)(C)O)c2nc(C3CC3)cc(=O)n21 [Example 66]
Unit: %
Test Value: 98
--
Compound: COC[C@@H](NC(=O)c1cc(=O)[nH]c2cc(OC)cnc12)c1ccc(OC(F)(F)F)c(F)c1 [Example 152]
Unit: %
Test Value: 100
--
Compound: COC[C@@H](NC(=O)c1cc(=O)[nH]c2cc(C)cnc12)c1ccc(OC(F)(F)F)cc1 [Example 92]
Unit: %
Test Value: 100
--
Compound: CC1(C)CCN(c2ccn3ncc(C(=O)N[C@@H](c4ccc(OC(F)(F)F)cc4)C(C)(C)O)c3n2)C1=O [Example 135]
Unit: %
Test Value: 100
--
Compound: Cc1ncn(-c2nc3c(C(=O)N[C@@H](c4ccc(OC(F)(F)F)cc4)C(C)(C)O)cnn3cc2C)n1 [Example 161]
Unit: %
Test Value: 100
--
Compound: Cc1cn(-c2ccn3ncc(C(=O)N[C@@H](c4ccc(OC(F)(F)F)cc4)C(C)(C)O)c3n2)cn1 [Example 115]
Unit: %
Test Value: 101
